Biological target: human PTH1 receptor (Homo sapiens, UniProt Q03431)
Sequence (Q03431 27-593): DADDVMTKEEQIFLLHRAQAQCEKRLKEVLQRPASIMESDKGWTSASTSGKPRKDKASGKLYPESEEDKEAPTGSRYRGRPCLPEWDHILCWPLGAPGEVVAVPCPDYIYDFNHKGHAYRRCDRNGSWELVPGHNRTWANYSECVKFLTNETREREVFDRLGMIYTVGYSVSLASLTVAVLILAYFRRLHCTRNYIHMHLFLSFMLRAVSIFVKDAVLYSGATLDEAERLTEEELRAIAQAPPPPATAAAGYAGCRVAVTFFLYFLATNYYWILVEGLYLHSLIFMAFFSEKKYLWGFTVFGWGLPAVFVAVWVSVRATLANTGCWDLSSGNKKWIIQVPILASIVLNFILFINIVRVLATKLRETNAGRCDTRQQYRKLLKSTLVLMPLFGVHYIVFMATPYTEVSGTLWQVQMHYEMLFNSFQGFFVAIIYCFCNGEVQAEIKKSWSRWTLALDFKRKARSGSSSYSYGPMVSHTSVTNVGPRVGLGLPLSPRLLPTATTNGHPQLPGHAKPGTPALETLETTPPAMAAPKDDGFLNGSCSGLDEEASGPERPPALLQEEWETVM
Test: In vitro cAMP signal activity in HKRK-B7 cells (LLC-PK1 cells overexpressing the human PTH1 receptor)
Type: cell-based
Details: HKRK-B7 cells; compound at 1×10^−3 M; cAMP produced as percentage of that produced by hPTH(1-34) at 100 nM
measuredProperty: cAMP production activity (%)
Give the quantity in %, number only.

| compound | measuredTarget | cAMP production activity (%) |
| --- | --- | --- |
| Cc1cc(C(=O)N(C)C)ccc1-c1ccc(S(=O)(=O)N2CCC3(CC2)N=C(c2cccc(C(F)(F)F)c2)NC3=O)s1 [Compound 331] | human PTH1 receptor (Homo sapiens, UniProt Q03431) | 55 |

Lab note: compound CCCCCCCCCC1=NC2(CCN(S(=O)(=O)CCc3ccc(N4C(=O)CNC4=O)cc3C(F)(F)F)CC2)C(=O)N1 [Compound 795] tested on human PTH1 receptor (Homo sapiens, UniProt Q03431); recorded cAMP production activity (%) was 97

Tested system human PTH1 receptor (Homo sapiens, UniProt Q03431); cAMP production activity (%) recorded for CC(=O)N(CCO)c1ccc(C)c(/C=C/S(=O)(=O)N2CCC3(CC2)N=C(c2cccc(OC(F)(F)F)c2)NC3=O)c1 [Compound 257] was 42

Form: item COC(=O)c1cccc(C2=NC3(CCN(S(=O)(=O)CCc4ccc(C(=O)N(C)C)cc4C)CC3)C(=O)N2)c1 [Compound 174] ; test system human PTH1 receptor (Homo sapiens, UniProt Q03431); cAMP production activity (%): 68

Known value: human PTH1 receptor (Homo sapiens, UniProt Q03431) cAMP production activity (%) of the compound O=C1NC(C2CCCCC2)=NC12CCN(S(=O)(=O)CCc1ccccc1C(F)(F)F)CC2 [Compound 323] equals 53

CC(C)(C)CC(=O)N1CCCC(C2=NC3(CCN(S(=O)(=O)c4cccc(Cl)c4)CC3)C(=O)N2)C1 (stereo not shown) [Compound 423] tested on human PTH1 receptor (Homo sapiens, UniProt Q03431) gave cAMP production activity (%): 42

For CCCC(CCC)C1=NC2(CCN(S(=O)(=O)CCc3c(C)cc(N(C)C(N)=O)cc3C)CC2)C(=O)N1 [Compound 1041] on human PTH1 receptor (Homo sapiens, UniProt Q03431), measured cAMP production activity (%) was 38

Cited source: patent US9169254B2
